# measurement.description: Cytotoxicity against HUVEC after 24 hrs by MTT assay
# Assay type: cell-based
# run.parameters: human, read-out: ID50
property.name: CC50 at 24 h

Solved entries:
| molecule | CC50 at 24 h |
| --- | --- |
| Cc1ccc2c(c1C=O)[C@@](C)(C=O)CC2(C)C | 5 µg/mL |
| COC(=O)[C@@]1(C)CC(C)(C)[C@H]2C1=C(C=O)[C@H](C)C[C@@H]2O [METHYL BOTRYENALOATE] | > 10 µg/mL |
| CC(=O)O[C@H]1C[C@@H](C)[C@@H](C=O)[C@@]2(O)[C@@H]1C(C)(C)C[C@]2(C)C=O | 10 µg/mL |
| CC(=O)O[C@H]1C[C@@H](C)[C@@H]2COC[C@@]3(C)CC(C)(C)[C@H]1[C@]23O | > 10 µg/mL |
| CC(=O)O[C@H]1C[C@@H](C)[C@H](CO)C2=C1C(C)(C)C[C@]2(C)CO | > 10 µg/mL |

Lookup: Look up CC50 at 24 h of CC1(C)C[C@](C)(CO)c2c1ccc(CO)c2CO and report it.
Found: > 10 µg/mL

Lookup: Look up CC50 at 24 h of Cc1ccc2c(c1CO)[C@@](C)(CO)C[C@@]2(C)CO and report it.
Found: > 10 µg/mL
